system_under_test: UniProt P81908
Sequence (P81908 whole entry): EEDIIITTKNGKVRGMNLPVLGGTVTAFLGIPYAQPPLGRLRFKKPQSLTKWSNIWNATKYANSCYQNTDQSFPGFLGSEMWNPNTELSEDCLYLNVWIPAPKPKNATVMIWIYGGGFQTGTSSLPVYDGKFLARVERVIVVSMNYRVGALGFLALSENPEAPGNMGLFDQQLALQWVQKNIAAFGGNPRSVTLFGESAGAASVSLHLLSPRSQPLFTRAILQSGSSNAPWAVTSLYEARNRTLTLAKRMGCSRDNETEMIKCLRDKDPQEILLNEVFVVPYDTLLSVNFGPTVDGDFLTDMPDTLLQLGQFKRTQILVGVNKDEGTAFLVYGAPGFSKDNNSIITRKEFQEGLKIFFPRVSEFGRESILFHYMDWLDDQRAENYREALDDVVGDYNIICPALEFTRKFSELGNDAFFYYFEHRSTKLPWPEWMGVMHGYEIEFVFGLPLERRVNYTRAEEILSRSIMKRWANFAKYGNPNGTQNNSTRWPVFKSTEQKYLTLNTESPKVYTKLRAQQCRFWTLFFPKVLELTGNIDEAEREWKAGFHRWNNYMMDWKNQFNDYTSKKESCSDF
assay_context: at 2 mg/mL
Description: Inhibition of horse BChE at 2 mg/ml by Ellman's method
A collection of compounds and their measured inhibition
Field: numeric (%). Do not append units.

chemical_string=COc1c(O)cc2c(c1O)[C@@H]1O[C@H](CO)[C@@H](O)[C@H](O)[C@H]1OC2=O readout_units=% recorded_number=-0.62

query: Quick one: inhibition of C[C@]12CC[C@H](O)C[C@H]1CC[C@@H]1[C@@H]2CC[C@]2(C)[C@@H](C3=CC(=O)OC3)[C@@H](O)C[C@]12O ?
result: 1.77

query: What about this compound? CC(C)[C@@H]1NC(=O)[C@H](C)OC(=O)[C@@H](C(C)C)NC(=O)[C@@H](C(C)C)OC(=O)[C@H](C(C)C)NC(=O)[C@H](C)OC(=O)[C@@H](C(C)C)NC(=O)[C@@H](C(C)C)OC(=O)[C@H](C(C)C)NC(=O)[C@H](C)OC(=O)[C@@H](C(C)C)NC(=O)[C@@H](C(C)C)OC1=O
result: -1.5
